Tested on: essential thrombocythemia cell line SET-2 cells (harboring endogenous JAK2 point mutation)
ASSAY REMARKS: Cell proliferation assay, SET-2 cells (CellTiter-Glo)
Assay type: cell-based
CONDITION CONTEXT: Homo sapiens, 72 hours incubation, read-out: Cell Proliferation IC50 SET2
pIC50: −log10 of the molar value.
Cut-off 6 on pIC50, inclusive. At or above means 1.0; below means 0.0.

COMPOUND	ASSIGNED CLASS
C[C@H]1Nc2ccn3ncc(c3n2)C(=O)N[C@@H](CO)COc2ccc(F)cc21 [Compound 6]	1.0
C[C@H]1CNC(=O)c2cnn3ccc(nc23)N[C@H](C)c2cc(F)cnc2O1 [Compound 60]	1.0
C[C@H]1Nc2ccn3ncc(c3n2)C(=O)N[C@H](CF)COc2ccc(F)cc21 [Compound 11]	1.0
C[C@H]1Nc2ccn3ncc(c3n2)C(=O)N[C@H](C(F)F)COc2ccc(F)cc21 [Compound 17]	1.0
C[C@H]1Nc2ccn3ncc(c3n2)C(=O)N2CCC(CC2)Oc2ccc(F)cc21 [Compound 54]	0.0
C[C@H]1Nc2ccn3ncc(c3n2)C(=O)N[C@H]2CCCC[C@@H]2Oc2ccc(F)cc21 [Compound 44]	0.0
CC1Nc2cnc3[nH]cc(c3n2)C(=O)NCCOc2ccccc21 (stereo not shown) [Compound 33]	0.0
C[C@H]1Nc2ccn3ncc(c3n2)C(=O)NC[C@@H](CF)Oc2ccc(F)cc21 [Compound 10]	1.0
C[C@H]1CNC(=O)c2cnn3ccc(nc23)NCc2cc(F)ccc2O1 [Compound 29]	1.0
C[C@H]1Nc2ccn3ncc(c3n2)C(=O)N[C@H](CO)COc2ccc(F)cc21 [Compound 8]	1.0
C[C@H]1CNC(=O)c2cnn3ccc(nc23)N[C@H](C)c2ncccc2O1 [Compound 32]	0.0
CC[C@H]1CNC(=O)c2cnn3ccc(nc23)N[C@H](C)c2cc(F)ccc2O1 [Compound 3]	1.0
CC[C@H]1Nc2ccn3ncc(c3n2)C(=O)NCCOc2ccc(F)cc21 [Compound 19]	1.0
CNC(=O)[C@H]1CNC(=O)c2cnn3ccc(nc23)N[C@H](C)c2cc(F)ccc2O1 [Compound 15]	0.0
C[C@H]1Nc2ccn3ncc(c3n2)C(=O)N[C@H]2CNC[C@H]2Oc2ccc(F)cc21 [Compound 48]	0.0
C[C@H]1Nc2ccn3ncc(c3n2)C(=O)N[C@@H](CN(C)C)COc2ccc(F)cc21 [Compound 13]	0.0
